biological target: UniProt:P32245; test: Assay for agonist activity (cAMP accumulation in HEK-293 cells); type: cell-based; conditions: HEK293; intrinsic activity; read-out: hMC4-R Emax (%)
Peptide text beside a SMILES is read from it.
Measurement kind: Emax (%)

- Molecule: "CC(=O)N[C@H](CCCNC(=N)N)C(=O)N[C@H]1CC(=O)NCCCC[C@@H](C(N)=O)NC(=O)[C@H](Cc2c[nH]c3ccccc23)NC(=O)[C@H](CCCNC(=N)N)NC(=O)[C@@H](Cc2ccccc2)NC(=O)[C@H](CCC(N)=O)NC1=O [compound 71]"
  Display unit: "%"
  Emax: 89
- Molecule: "CC(=O)N[C@@H](CCCNC(=N)N)C(=O)N[C@H]1CCCCNC(=O)C[C@@H](C(N)=O)NC(=O)[C@H](Cc2c[nH]c3ccccc23)NC(=O)[C@H](CCCNC(=N)N)NC(=O)[C@@H](Cc2ccccc2)NC(=O)[C@H](CC(N)=O)NC1=O [compound 155] (HELM PEPTIDE1{[ac].R.K.N.[dF].R.W.D.[am]}$PEPTIDE1,PEPTIDE1,3:R3-8:R3$$$V2.0)"
  Display unit: "%"
  Emax: 97
- Molecule: "CC(=O)N[C@@H](CCCNC(=N)N)C(=O)N[C@H]1CCCC(=O)NCC[C@@H](C(N)=O)NC(=O)[C@H](Cc2c[nH]c3ccccc23)NC(=O)[C@H](CCCNC(=N)N)NC(=O)[C@@H](Cc2ccccc2)NC(=O)[C@H](CC(N)=O)NC1=O [compound 160] (HELM PEPTIDE1{[ac].R.[O=C([C@H](CCCC(=O)[*:3])N[*:1])[*:2]].N.[dF].R.W.[Dab].[am]}$PEPTIDE1,PEPTIDE1,3:R3-8:R3$$$V2.0)"
  Display unit: "%"
  Emax: 98
- Molecule: "CC(=O)N[C@@H](CCCNC(=N)N)C(=O)N[C@H]1CCC(=O)NCCC[C@@H](C(N)=O)NC(=O)[C@H](Cc2c[nH]c3ccccc23)NC(=O)[C@H](CCCNC(=N)N)NC(=O)[C@@H](Cc2ccccc2)NC(=O)[C@H](CC(N)=O)NC1=O [compound 161]"
  Display unit: "%"
  Emax: 91

###

molecular target: hMC4-R (Homo sapiens (Human), UniProt P32245); test: Assay for agonist activity (cAMP accumulation in HEK-293 cells); type: cell-based; settings: agonist = intrinsic activity 70% or higher; partial agonist 10-70%
Sequence (P32245 whole entry): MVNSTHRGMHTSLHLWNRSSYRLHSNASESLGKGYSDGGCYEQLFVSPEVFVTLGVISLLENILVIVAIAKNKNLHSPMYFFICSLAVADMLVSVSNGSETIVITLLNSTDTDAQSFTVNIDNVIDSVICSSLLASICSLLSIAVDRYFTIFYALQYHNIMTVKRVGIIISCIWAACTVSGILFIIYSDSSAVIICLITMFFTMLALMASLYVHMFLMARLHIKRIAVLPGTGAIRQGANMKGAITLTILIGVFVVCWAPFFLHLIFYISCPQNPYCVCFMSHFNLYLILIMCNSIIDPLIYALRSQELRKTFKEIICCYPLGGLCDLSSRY
Measurement kind: functional classification at MC4-R

- Molecule: "CC(=O)N[C@@H](CCCNC(=N)N)C(=O)N[C@H]1CCNC(=O)CCC[C@@H](C(N)=O)NC(=O)[C@H](Cc2c[nH]c3ccccc23)NC(=O)[C@H](CCCNC(=N)N)NC(=O)[C@@H](Cc2ccccc2)NC(=O)[C@H](CCN)NC1=O"
  Measured result: "agonist"
- Molecule: "CC(=O)N[C@@H](CCCNC(=N)N)C(=O)N[C@H]1CC(=O)NCCCC[C@@H](C(N)=O)NC(=O)[C@H](Cc2c[nH]c3ccccc23)NC(=O)[C@H](CCCNC(=N)N)NC(=O)[C@@H](Cc2ccccc2)NC(=O)[C@H](CCC(N)=O)NC1=O [Peptide No. 32]"
  Measured result: "agonist"

###

molecular target: hMC1-R (Homo sapiens (Human)); assay: Functional assay for agonist activity at hMC1-R; type: cell-based; conditions: intrinsic activity
Sequence (Q01726 whole entry): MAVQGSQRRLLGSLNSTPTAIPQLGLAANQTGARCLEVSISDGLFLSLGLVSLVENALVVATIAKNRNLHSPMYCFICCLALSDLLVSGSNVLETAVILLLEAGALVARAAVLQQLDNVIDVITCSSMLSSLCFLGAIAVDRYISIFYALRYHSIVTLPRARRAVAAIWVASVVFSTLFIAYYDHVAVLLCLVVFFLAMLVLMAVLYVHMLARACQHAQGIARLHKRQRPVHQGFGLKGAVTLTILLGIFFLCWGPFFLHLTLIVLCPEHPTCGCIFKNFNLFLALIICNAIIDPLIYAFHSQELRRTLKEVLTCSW
Peptide text beside a SMILES is read from it.
Recorded Emax values for a group of molecules are listed next.
Give the value in % but do not write % after it.

- Molecule: "CC(=O)N[C@@H](CCCNC(=N)N)C(=O)N[C@H]1CCCCNC(=O)C[C@@H](C(N)=O)NC(=O)[C@H](Cc2c[nH]c3ccccc23)NC(=O)[C@H](CCCNC(=N)N)NC(=O)[C@@H](Cc2ccccc2)NC(=O)[C@H](CC(N)=O)NC1=O [compound 155] (HELM PEPTIDE1{[ac].R.K.N.[dF].R.W.D.[am]}$PEPTIDE1,PEPTIDE1,3:R3-8:R3$$$V2.0)"
  Measurement target: "hMC1-R (Homo sapiens (Human))"
  Display unit: "%"
  Emax: 91
- Molecule: "CC(=O)N[C@@H](CCCNC(=N)N)C(=O)N[C@H]1CCNC(=O)CCC[C@@H](C(N)=O)NC(=O)[C@H](Cc2c[nH]c3ccccc23)NC(=O)[C@H](CCCNC(=N)N)NC(=O)[C@@H](Cc2ccccc2)NC(=O)[C@H](CCC(N)=O)NC1=O [compound 159]"
  Measurement target: "hMC1-R (Homo sapiens (Human))"
  Display unit: "%"
  Emax: 98

Here is another molecule to look at.
Q) What Emax value was documented for this molecule, CC(=O)N[C@@H](CCCNC(=N)N)C(=O)N[C@H]1CCCCNC(=O)C[C@@H](C(N)=O)NC(=O)[C@H](Cc2ccc3ccccc3c2)NC(=O)[C@H](CCCNC(=N)N)NC(=O)[C@@H](Cc2ccccc2)NC(=O)[C@H](CC(N)=O)NC1=O [compound 162] (HELM PEPTIDE1{[ac].R.K.N.[dF].R.[O=C([C@H](Cc1ccc2ccccc2c1)N[*:1])[*:2]].D.[am]}$PEPTIDE1,PEPTIDE1,3:R3-8:R3$$$V2.0) ?
A) 89
